- Tested on: INS-1E rat beta cells, no cytokines, CellTiter-Glo ATP, 48 h
- ASSAY_NAME: cytokine-free beta-cell viability effect – INS-1E rat cells, ATP luminescence, cherry pick, counter-screen for beta-cell apoptosis protection project, dose response (AID 463229)
MEASUREMENT_KIND: AC50

Problem: Enter reported AC50 observed with INS-1E rat beta cells, no cytokines, CellTiter-Glo ATP, 48 h for [O-][N+]1=c2ccc(Nc3ccccc3)cc2=NC12CCCCC2
Solution: 12.5 µM

Problem: Try this compound next: CCOc1ccc(-c2c[n+]3c(n2-c2ccccc2)CCCCC3)cc1
Solution: 0.982 µM

Problem: Okay, and CC(C)CC(=O)NC(c1cccs1)c1ccc2cccnc2c1O (stereo unspecified) ?
Solution: 2.33 µM

Problem: How about this compound: N#CC1=C(N)Oc2c(ccc3cccnc23)C1c1ccccc1 (stereo unspecified)
Solution: 19.3 µM

Problem: Consider next the compound Clc1cc2cccnc2c2ncccc12 in the same way.
Solution: 15 µM

Problem: How about this compound: FC(F)Sc1ccc(N=C2NN=C(c3ccc4c(c3)OCCO4)CS2)cc1
Solution: 2.9 µM

Problem: // next record CCOc1ccc(-n2c(-c3ccccc3)c[n+]3c2CCCCC3)cc1
Solution: 0.85 µM

Problem: Now the compound O=C(N/N=C/c1ccc(O)cc1O)c1ccc(CN2C(=O)c3cccc4cccc2c34)cc1
Solution: 3.89 µM

Problem: And what about the compound Cc1nnc(N/N=C/c2ccccn2)[nH]c1=O ?
Solution: 5.46 µM

Problem: Let us now turn to Cc1ccc(C(=O)C[n+]2cc(-c3ccccc3)n3c2CCCCC3)cc1
Solution: 6 µM

Problem: Same question, Cc1ccc(NC2=C(N3CCCCC3)C(=O)c3ccccc3C2=O)cc1 this time
Solution: 1.9 µM

---

- System: INS-1E rat beta cells, no cytokines, CellTiter-Glo ATP, 48 h
- ASSAY_NAME: cytokine-free beta-cell viability effect – INS-1E rat cells, ATP luminescence, cherry pick, counter-screen for beta-cell apoptosis protection project, dose response (AID 463229)
MEASUREMENT_KIND: AC50

Problem: Param readout= AC50; system= INS-1E rat beta cells, no cytokines, CellTiter-Glo ATP, 48 h; entry= CCN(CC)S(=O)(=O)c1ccc(Oc2ccc(S(=O)(=O)N(CC)CC)cc2)cc1 ; returns value.
Solution: 2.88 µM

Problem: Queued: N#Cc1c([N+](=O)[O-])cc([N+](=O)[O-])cc1S(=O)(=O)Cc1ccccc1
Solution: 4.91 µM

Problem: Moving on to the next compound: COc1ccc(-c2nc3ccc(C)cn3c2NCc2ccccc2)cc1SC1CCCCC1
Solution: 2.34 µM

Problem: And COc1cccc(CN2CCC(N(CCc3ccccc3)Cc3ccccc3)CC2)c1OC ?
Solution: 14.7 µM

Problem: Next entry: Cc1nc(N2CCN(C(=O)c3ccco3)CC2)c2c3c(sc2n1)CC(C)CC3 (stereo not given)
Solution: 5.51 µM

Problem: Quick one: O=C(N/N=C(\c1ccccc1)c1ccccn1)c1ccccc1Cl
Solution: 6.14 µM

Problem: Also check Cc1ccc(-c2nc(N/N=C/c3cccnc3)c3ccccc3n2)cc1
Solution: 9.02 µM

Problem: Follow-up entry: Cc1cc(N/N=C/c2ccc(O)cc2O)nc(-n2nc(C)cc2C)n1
Solution: 6.67 µM

Problem: Let us now turn to CCC(C)c1ccc(NC(=S)NC2CCN(Cc3ccccc3)CC2)cc1 (stereo not given)
Solution: 10.4 µM

Problem: For COc1cccc(-c2nc(-c3ccc(NC(=O)c4cccnc4)cc3)no2)c1 then?
Solution: 2.14 µM

---

- System: INS-1E rat beta cells, no cytokines, CellTiter-Glo ATP, 48 h
- ASSAY_NAME: cytokine-free beta-cell viability effect – INS-1E rat cells, ATP luminescence, cherry pick, counter-screen for beta-cell apoptosis protection project, dose response (AID 463229)
Activity calls are given as the source filed them.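 The calls were made as follows: active = compounds raising the signal whose fitted half-maximal concentration is at or below their top tested dose (cut at about 25 µM in these data); inconclusive = flat fit at 30 to 70% activity, or a poor fit; inactive = the rest.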
Your reply should match one of these outcome classes. active, inactive

Problem: Look up the recorded call for CCOc1cc(/C=N/Nc2cc(C)nc(-n3nc(C)cc3C)n2)ccc1O in this test.
Solution: active

Problem: Entry to check: O=c1c2ccccc2nc(COc2ccccc2)n1/N=C/c1cc([N+](=O)[O-])ccc1O
Solution: active

Problem: Same for Cc1sc2ncnc(NCC(C)(C)N3CCOCC3)c2c1C
Solution: active

Problem: Okay, and COc1ccc(CC(=O)Nc2nc(-c3ccc(F)c(F)c3)cs2)cc1OC ?
Solution: active

Problem: Would you mind doing CN(C)S(=O)(=O)c1ccc(Nc2nc(C3CC3)nc3c2nnn3Cc2ccccc2Cl)cc1 as well?
Solution: active

Problem: Same read-out for Clc1ccc2c(N/N=C/c3cccc(Br)c3)ccnc2c1 ?
Solution: active

Problem: And the next one, COc1cc(NC(=O)COc2cc(O)c3c(c2)OC(C)(C)CC3=O)cc(OC)c1OC ?
Solution: active

Problem: Here is the next compound: Oc1ccc2ccccc2c1N=Nc1ccccn1
Solution: active

Problem: Now the compound COc1cccc(/C=N/NC(=O)c2c(C)nc3ccc(Cl)cn23)c1O
Solution: active

Problem: Same question for CCN(CC)c1ccc(C(=O)N/N=C/c2ccccc2OC(F)F)cc1 please.
Solution: active

Problem: And for COc1ccc(C2/C=C\CN(C(=O)c3ccccc3)[C@H](Cc3ccccc3)C(=O)N2Cc2ccc(F)cc2)cc1 (some centres not stated) ?
Solution: active

Problem: Same question, c1ccc(/N=C2\N=C(Nc3ccccn3)c3ccccc32)nc1 this time
Solution: active

Problem: CCOC(=O)c1sc(NC(=O)c2c(C)nn(Cc3ccccc3)c2C)cc1C , same question.
Solution: inactive

Problem: Thanks! And CCOC(=O)c1ccc(NC(=O)c2cccnc2)cc1 ?
Solution: active

Problem: Check CC(CNC(=O)c1ccc(OC2CCN(Cc3ccccn3)CC2)cc1)Oc1cccnc1 (configuration not stated) too.
Solution: active

Problem: // same read-out, input: O=C(N/N=C/c1ccc[nH]1)c1ccc(COc2cccc3cccnc23)cc1
Solution: active

Problem: Let us now turn to Cc1cc(C)nc(N/N=C2/CCCC/C2=C\c2ccccc2)n1
Solution: active

Problem: Further, for Cc1ccc(S(=O)(=O)NCc2ccncc2)cc1C ?
Solution: active

Problem: Likewise for CCN(CC)C(=O)c1cc([N+](=O)[O-])cc2c1-c1ccc([N+](=O)[O-])cc1C2=C(C#N)C#N ?
Solution: active

Problem: Same read-out for C1=C(CCNc2ncnc3c2[nH]c2ccccc23)CCCC1 ?
Solution: active

Problem: How about O=C(NCc1cccnc1)/C(=C\c1ccc(-c2ccc(Br)cc2)o1)S(=O)(=O)c1ccccc1 ?
Solution: active

Problem: Now consider O=C(N/N=C/c1ccccc1O)c1ccc2c(c1)OCO2 and answer again.
Solution: active

Problem: Check COc1ccc(C(=O)N(C)c2ccccc2C(=O)NCCc2ccccc2)cc1 too.
Solution: active

Problem: # repeat for CCCCC(=O)NC(c1ccc(Cl)cc1)c1ccc2cccnc2c1O (configuration not stated)
Solution: active

Problem: Next up: COc1ccc(-n2c(-c3ccc(Br)cc3)c[n+]3c2CCCCC3)cc1
Solution: active

Problem: Try C/C(=N\NC(=O)COc1ccccc1-c1ccccc1)c1ccc(O)cc1O next.
Solution: active

Problem: Field entry: CCC(CO)Oc1cc(NCc2ccc(C)c(C)c2)c2ncn(C(C)C)c2c1 (configuration not stated)
Solution: active

Problem: Again, but for O=C(O)c1ccc(S(=O)(=O)/N=C2\C=C(Nc3ccccc3F)C(=O)c3ccccc32)cc1
Solution: active

Problem: Same again, this time with CCCCC1(Cc2ccc([N+](=O)[O-])cc2)C(=O)N(c2ccccc2)N(c2ccccc2)C1=O
Solution: active

Problem: # repeat for O=C(N/N=C/c1cc(Cl)ccc1O)c1ccc(Br)cc1
Solution: active

Problem: Another: C=C1[C@@H](O)[C@@H]2O[C@]3(CC[C@H](/C=C/[C@@H](C)[C@@H]4CC(C)=CC5(O[C@H](C[C@@](C)(O)C(=O)OC)CC[C@H]5O)O4)O3)CC[C@H]2O[C@@H]1[C@@H](O)C[C@H](C)[C@H]1OC2(CCCCO2)CC[C@H]1C (some centres not stated)
Solution: active

Problem: # iterate: O=C(CCC1CCCC1)Nc1ccc(C(=O)NCc2cccnc2)cc1
Solution: active

Problem: Entry to check: CC(C)c1ccc(/C=C(\c2nc3ccccc3[nH]2)S(=O)(=O)c2ccccc2)cc1
Solution: active

Problem: Follow-up item: COc1cccc(/C=N/Nc2snc(SC)c2C#N)c1O
Solution: active

Problem: Now give it for C/C(=N\N1C(=O)c2ccccc2NC1c1ccccc1)c1ccccc1O (configuration not stated) too.
Solution: active

Problem: Same for CC(C)C(=O)NC(=S)/C=C1/N(C)c2ccccc2C1(C)C
Solution: active

Problem: And what about the compound COc1ccc(NC(=O)c2c(Nc3ccccc3)sc(C(=O)c3ccc(F)cc3)c2N)cc1 ?
Solution: active

Problem: Do the same for COc1ccc(/C=N/Nc2cc(C)nc3ccc(Br)cc23)cc1 please
Solution: active

Problem: # iterate: O=[N+]([O-])c1cc(C(F)(F)F)ccc1NCCCCNS(=O)(=O)c1ccc(Cl)cc1
Solution: active

Problem: Same question, Oc1c(Br)cc(Br)cc1/C=N/NC(=S)N[C@H]1CC2C=CC1C2 (some centres not stated) this time
Solution: active

Problem: Next up: CCn1cc(/C=C/c2cc[n+](C)cc2)c2ccccc21
Solution: active

Problem: Then what about the compound COC(=O)c1cc(C)nc2c1C(=O)C(=O)C=C2N1CCOCC1 ?
Solution: active
